Experimental System: Kras and SOS1 (biotin-tagged human Kras loaded with GDP, His-tagged human SOS1) (Homo sapiens, UniProt P01116, G12D)
Construct: made in house; host or cells: E. coli (stated for Kras only)
Sequence (P01116 1-188 isoform P01116-2 G12D): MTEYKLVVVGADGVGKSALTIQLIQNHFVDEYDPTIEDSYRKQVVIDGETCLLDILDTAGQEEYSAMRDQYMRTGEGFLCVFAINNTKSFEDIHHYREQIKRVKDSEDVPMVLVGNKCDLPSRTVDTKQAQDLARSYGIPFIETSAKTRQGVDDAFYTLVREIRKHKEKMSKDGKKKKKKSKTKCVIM
Assay Comment: Protein-protein interaction inhibition between Kras and SOS1 (KrasGl2D-SOS PPI) using AlphaScreen
Type: binding
Measurement Setup: AlphaScreen; biotin-tagged human Kras loaded with GDP, His-tagged human SOS1; read-out: KRAS G12D-SOS PPI IC50
pIC50: −log10 of the molar value. Starred links: 1 amine or outer side, 2 acyl side, 3 side chain; linkers in the order of their positions; H or OH if unused. Positions of bridges follow the written chain, without caps; N, C: chain ends. Non-standard residues stand in square brackets, D forms with d. Residues, ends and D or L forms follow the SMILES beside them. *: point of attachment. hPhe(3-Cl-4-CF3) = N[C@@H](CCc1ccc(C(F)(F)F)c(Cl)c1)C(=O)O; NMePhe(4-CF3) = CN[C@@H](Cc1ccc(C(F)(F)F)cc1)C(=O)O; X23 = CN([C@@H](Cc1ccccc1OC(F)(F)F)C(=O)[*:2])[*:1]; 3Oxa8azabicyclo(3.2.1)octane = C1CC2COCC1N2*; NMeCha = CN[C@@H](CC1CCCCC1)C(=O)O; NMeChg = CN[C@H](C(=O)O)C1CCCCC1; NMeI = CC[C@H](C)[C@H](NC)C(=O)O; NMeD = CN[C@@H](CC(=O)O)C(=O)O; NMeL = CN[C@@H](CC(C)C)C(=O)O; NMeV = CN[C@H](C(=O)O)C(C)C; d(β3hA) = C[C@@H](N)CC(=O)O; NMeA = CN[C@@H](C)C(=O)O; Piperidide = C1CCN(*)CC1; Ac5c = NC1(C(=O)O)CCCC1; Aze = O=C(O)[C@@H]1CCN1; Sar = CNCC(=O)O
Each record here notes measured pIC50.

- Compound: "CC[C@H](C)[C@@H]1NC(=O)[C@H](CC(C)C)N(C)C(=O)C[C@@H](C(=O)N2CCCCC2)N(C)C(=O)[C@H](C2CCCCC2)N(C)C(=O)C2(CCCC2)NC(=O)[C@@H]2CCCN2C(=O)[C@H](CCc2ccc(C(F)(F)F)c(Cl)c2)NC(=O)CN(C)C(=O)[C@H](CC2CCCCC2)N(C)C(=O)CN(C)C(=O)CNC1=O [Compound 1315] ([NMeL]IG[Sar][NMeCha][Sar][hPhe(3-Cl-4-CF3)]P[Ac5c][NMeChg][NMeD]-Piperidide; lactam N-11)"
  pIC50: 9.00
- Compound: "CC[C@H](C)[C@@H]1NC(=O)[C@H](CC(C)C)N(C)C(=O)C[C@@H](C)NC(=O)[C@H](C(C)C)N(C)C(=O)C2(CCCC2)NC(=O)[C@@H]2CCCN2C(=O)[C@H](CCc2ccc(C(F)(F)F)c(Cl)c2)NC(=O)CN(C)C(=O)[C@H](Cc2ccccc2OC(F)(F)F)N(C)C(=O)CN(C)C(=O)CN(C)C1=O [Compound 1635] (cyclo([Ac5c][NMeV][d(β3hA)][NMeL]I[Sar][Sar][X23][Sar][hPhe(3-Cl-4-CF3)]P))"
  pIC50: 6.85
- Compound: "CC[C@H](C)[C@@H]1NC(=O)[C@H](CC(C)C)N(C)C(=O)C[C@@H](C(=O)N2C3CCC2COC3)N(C)C(=O)[C@H]([C@@H](C)CC)N(C)C(=O)C2(CCCC2)NC(=O)[C@@H]2CCCN2C(=O)[C@H](CCc2ccc(C(F)(F)F)c(Cl)c2)NC(=O)CN(C)C(=O)[C@H](Cc2ccc(C(F)(F)F)cc2)N(C)C(=O)[C@@H]2CCN2C(=O)[C@H](C)N(C)C1=O [Compound 545] ([NMeL]I[NMeA][Aze][NMePhe(4-CF3)][Sar][hPhe(3-Cl-4-CF3)]P[Ac5c][NMeI][NMeD]-{3Oxa8azabicyclo(3.2.1)octane}; lactam N-11)"
  pIC50: 8.96

* * *

Each record here notes measured pIC50.
Experimental System: Kras and SOS1 (biotin-tagged human Kras loaded with GDP, His-tagged human SOS1) (Homo sapiens, UniProt P01116, G12D)
Construct: made in house; host or cells: E. coli (stated for Kras only)
Assay Comment: Protein-protein interaction inhibition between Kras and SOS1 (KrasGl2D-SOS PPI) using AlphaScreen
Type: binding
Measurement Setup: AlphaScreen; biotin-tagged human Kras loaded with GDP, His-tagged human SOS1; read-out: KRAS G12D-SOS PPI IC50
pIC50: −log10 of the molar value. Positions of bridges follow the written chain, without caps; N, C: chain ends. Non-standard residues stand in square brackets, D forms with d. Residues, ends and D or L forms follow the SMILES beside them. *: point of attachment. hPhe(3,5-F2-4-CF3) = N[C@@H](CCc1cc(F)c(C(F)(F)F)c(F)c1)C(=O)O; hPhe(3-Cl-4-CF3) = N[C@@H](CCc1ccc(C(F)(F)F)c(Cl)c1)C(=O)O; NMeAbu(4,4,4-F3) = CN[C@@H](CC(F)(F)F)C(=O)O; NMeAla(cPent) = CN[C@@H](CC1CCCC1)C(=O)O; NMeCha = CN[C@@H](CC1CCCCC1)C(=O)O; NMeChg = CN[C@H](C(=O)O)C1CCCCC1; NMeD = CN[C@@H](CC(=O)O)C(=O)O; NMeL = CN[C@@H](CC(C)C)C(=O)O; NMeV = CN[C@H](C(=O)O)C(C)C; NMeS = CN[C@@H](CO)C(=O)O; Morpholide = C1CN(*)CCO1; Piperidide = C1CCN(*)CC1; Pyrrolidide = C1CCN(*)C1; Ac5c = NC1(C(=O)O)CCCC1; Aze = O=C(O)[C@@H]1CCN1; Sar = CNCC(=O)O; Propyl = CCC*

- Compound: "CC[C@H](C)[C@@H]1NC(=O)[C@H](CC(F)(F)F)N(C)C(=O)C[C@@H](C(=O)N2CCCC2)N(C)C(=O)[C@H](C2CCCCC2)N(C)C(=O)C2(CCCC2)NC(=O)[C@@H]2CCCN2C(=O)[C@H](CCc2cc(F)c(C(F)(F)F)c(F)c2)NC(=O)CN(C)C(=O)[C@H](CC2CCCCC2)N(C)C(=O)CN(C)C(=O)CN(C)C1=O [Compound 1228] ([NMeAbu(4,4,4-F3)]I[Sar][Sar][NMeCha][Sar][hPhe(3,5-F2-4-CF3)]P[Ac5c][NMeChg][NMeD]-Pyrrolidide; lactam N-11)"
  pIC50: 9.23
- Compound: "CC[C@H](C)[C@@H]1NC(=O)[C@H](CC2CCCC2)N(C)C(=O)C[C@@H](C(=O)N2CCCCC2)N(C)C(=O)[C@H](C2CCCCC2)N(C)C(=O)C2(CCCC2)NC(=O)[C@@H]2CCCN2C(=O)[C@H](CCc2ccc(C(F)(F)F)c(Cl)c2)NC(=O)CN(C)C(=O)[C@H](CC2CCCCC2)N(C)C(=O)CN(C)C(=O)CN(C)C1=O [Compound 1663] ([NMeAla(cPent)]I[Sar][Sar][NMeCha][Sar][hPhe(3-Cl-4-CF3)]P[Ac5c][NMeChg][NMeD]-Piperidide; lactam N-11)"
  pIC50: 8.80
- Compound: "CC[C@H](C)[C@@H]1NC(=O)[C@H](CC(F)(F)F)N(C)C(=O)C[C@@H](C(=O)N2CCOCC2)N(C)C(=O)[C@H](C2CCCCC2)N(C)C(=O)C2(CCCC2)NC(=O)[C@@H]2CCCN2C(=O)[C@H](CCc2ccc(C(F)(F)F)c(Cl)c2)NC(=O)CN(C)C(=O)[C@H](CC2CCCCC2)N(C)C(=O)CN(C)C(=O)CN(C)C1=O [Compound 774] ([NMeAbu(4,4,4-F3)]I[Sar][Sar][NMeCha][Sar][hPhe(3-Cl-4-CF3)]P[Ac5c][NMeChg][NMeD]-Morpholide; lactam N-11)"
  pIC50: 9.26
- Compound: "CCCOC[C@H]1C(=O)N2CC[C@H]2C(=O)N(C)[C@@H](CC2CCCCC2)C(=O)N(C)CC(=O)N[C@@H](CCc2ccc(C(F)(F)F)c(Cl)c2)C(=O)N2CCC[C@H]2C(=O)NC2(CCCC2)C(=O)N(C)[C@@H](C(C)C)C(=O)N(C)[C@H](C(=O)N2CCCCC2)CC(=O)N(C)[C@@H](CC(C)C)C(=O)N[C@@H]([C@@H](C)CC)C(=O)N1C [Compound 809] ([NMeL]I[NMeS](Propyl)[Aze][NMeCha][Sar][hPhe(3-Cl-4-CF3)]P[Ac5c][NMeV][NMeD]-Piperidide; lactam N-11)"
  pIC50: 7.33
